- TARGET_OF_ASSAY: human caspase-5 (Homo sapiens, UniProt P51878)
- Sequence (P51878 137-327 limits assumed): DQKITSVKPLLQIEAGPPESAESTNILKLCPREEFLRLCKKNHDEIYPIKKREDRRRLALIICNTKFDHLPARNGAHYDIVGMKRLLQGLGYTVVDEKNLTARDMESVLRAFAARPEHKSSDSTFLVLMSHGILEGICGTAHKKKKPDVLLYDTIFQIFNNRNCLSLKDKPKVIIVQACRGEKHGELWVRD
- Sequence (P51878 347-434 limits assumed): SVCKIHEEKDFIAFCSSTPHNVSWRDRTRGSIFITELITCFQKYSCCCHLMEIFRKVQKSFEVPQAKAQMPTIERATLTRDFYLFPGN
- PROTOCOL_SUMMARY: tetrapeptide-ACC substrate cleavage kinetics
- Assay type: biochemical
- PARTICULARS: Ac-P4-P3-P2-Asp-ACC substrate, 0.05-500 μM, 20-250 nM enzyme, 37°C, triplicate
RESULT_TYPE: kcat/KM caspase-5

[[record]]
substance = "Val-Asp-His-Asp"
result_value = "4 830 M^-1s^-1"

[[record]]
substance = "Pro-Tyr-His-Asp"
result_value = "1 110 M^-1s^-1"

[[record]]
substance = "Tyr-Val-His-Asp"
result_value = "9 640 M^-1s^-1"

[[record]]
substance = "Leu-Glu-His-Asp"
result_value = "21 500 M^-1s^-1"

[[record]]
substance = "Trp-Gln-Val-Asp"
result_value = "5 100 M^-1s^-1"

[[record]]
substance = "Phe-Glu-Ala-Asp"
result_value = "6 720 M^-1s^-1"

[[record]]
substance = "Ile-Glu-Thr-Asp"
result_value = "2 850 M^-1s^-1"

[[record]]
substance = "Trp-Gln-Pro-Asp"
result_value = "5 420 M^-1s^-1"

[[record]]
substance = "Tyr-Gln-Pro-Asp"
result_value = "1 590 M^-1s^-1"

[[record]]
substance = "Phe-Leu-Thr-Asp"
result_value = "1 190 M^-1s^-1"

[[record]]
substance = "Thr-Trp-His-Asp"
result_value = "600 M⁻¹ s⁻¹"

[[record]]
substance = "Tyr-Glu-Lys-Asp"
result_value = "3 430 M^-1s^-1"

[[record]]
substance = "Trp-Glu-His-Asp"
result_value = "26 800 M^-1s^-1"


---

Listed next: entries and their corresponding kcat/KM caspase-7.
- TARGET_OF_ASSAY: human caspase-7 (Homo sapiens, UniProt P55210)
- Sequence (P55210 24-198 limits assumed): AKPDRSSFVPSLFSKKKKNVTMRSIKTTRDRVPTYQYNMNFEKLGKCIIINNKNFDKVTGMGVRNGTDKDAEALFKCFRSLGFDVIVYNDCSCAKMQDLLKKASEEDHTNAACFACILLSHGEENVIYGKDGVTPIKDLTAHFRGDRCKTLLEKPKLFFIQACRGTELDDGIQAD
- Sequence (P55210 207-303 limits assumed): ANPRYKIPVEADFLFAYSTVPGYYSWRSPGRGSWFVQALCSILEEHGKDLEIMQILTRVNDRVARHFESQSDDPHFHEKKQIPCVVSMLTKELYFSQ
- PROTOCOL_SUMMARY: tetrapeptide-ACC substrate cleavage kinetics
- Assay type: biochemical
- PARTICULARS: Ac-P4-P3-P2-Asp-ACC substrate, 0.05-500 μM, 40-400 nM enzyme, 37°C, triplicate
RESULT_TYPE: kcat/KM caspase-7

[[record]]
substance = "Tyr-Thr-Ile-Asp"
result_value = "1 440 M^-1s^-1"

[[record]]
substance = "Ile-Glu-Thr-Asp"
result_value = "3 400 M^-1s^-1"

[[record]]
substance = "Asp-Glu-Val-Asp"
result_value = "85 000 M^-1s^-1"

